// MOLT-4 GI50 records
Enter your answer as a number in nM; do not include the unit.

{"compound": "CN1CCN(Cc2ccc(C(=O)Nc3cccc(C#Cc4cccc5[nH]nc(N)c45)c3)cc2C(F)(F)F)CC1 [Compound 4a]", "GI50 / nM": 494}

Query: Give the reported GI50 for this compound. CCN1CCN(Cc2ccc(C(=O)Nc3cccc(C#Cc4cccc5[nH]nc(N)c45)c3)cc2C(F)(F)F)CC1 [Compound 4b]
Response: 1420

Query: Give the reported GI50 for this compound. Nc1n[nH]c2cccc(C#Cc3cccc(NC(=O)c4ccc(N5CCOCC5)c(C(F)(F)F)c4)c3)c12 [I, reference compound]
Response: 1310

Query: Give the reported GI50 for this compound. CCN1CCN(Cc2ccc(NC(=O)c3cccc(C#Cc4cccc5[nH]nc(N)c45)c3)cc2C(F)(F)F)CC1 [Compound 5]
Response: 227

---

# assay-system: BCR-ABL^WT (Homo sapiens, UniProt P00519)
# measurement-description: BCR-ABL WT kinase inhibition assay
# Format: biochemical
# cond: 10-dose duplicate, 3-fold serial dilution, 10 µM ATP
assay-metric: IC50

{"smiles-repr": "CCN1CCN(Cc2ccc(C(=O)Nc3cccc(C#Cc4cccc5[nH]nc(N)c45)c3)cc2C(F)(F)F)CC1", "experimental-result": "0.64 nM"}
{"smiles-repr": "CN1CCN(Cc2ccc(C(=O)Nc3cccc(C#Cc4cccc5[nH]nc(N)c45)c3)cc2C(F)(F)F)CC1", "experimental-result": "< 0.51 nM"}

Next compound, please.
Query: Give the reported IC50 for this compound. CCN1CCN(Cc2ccc(NC(=O)c3cccc(C#Cc4cccc5[nH]nc(N)c45)c3)cc2C(F)(F)F)CC1
Response: < 0.51 nM

---

# assay-system: ABL^M351T (Homo sapiens, UniProt P00519, M351T)
# measurement-description: ABL mutant enzymatic assay
# cond: 10-dose, 3-fold dilution from 20 μM, 10 μM ATP
assay-metric: IC50 (nM)
Enter your answer as a number in nM; do not include the unit.

Query: Give the reported IC50 for this molecule. CCN1CCN(Cc2ccc(NC(=O)c3cccc(C#Cc4cccc5[nH]nc(N)c45)c3)cc2C(F)(F)F)CC1
Response: 3.44

---

# assay-system: ABL^H396P (Homo sapiens, UniProt P00519, H396P)
# measurement-description: ABL mutant enzymatic assay
# cond: 10-dose, 3-fold dilution from 20 μM, 10 μM ATP
pIC50: −log10 of the molar value.
assay-metric: pIC50

Query: Give the reported pIC50 for this compound. CCN1CCN(Cc2ccc(NC(=O)c3cccc(C#Cc4cccc5[nH]nc(N)c45)c3)cc2C(F)(F)F)CC1 [Compound 5]
Response: > 8.99

---

# assay-system: CYP1A2 (Homo sapiens)
# Construct: purchased ThermoFisher (Vivid CYP450 screening kit), run at RBC
# Sequence (P05177 whole entry): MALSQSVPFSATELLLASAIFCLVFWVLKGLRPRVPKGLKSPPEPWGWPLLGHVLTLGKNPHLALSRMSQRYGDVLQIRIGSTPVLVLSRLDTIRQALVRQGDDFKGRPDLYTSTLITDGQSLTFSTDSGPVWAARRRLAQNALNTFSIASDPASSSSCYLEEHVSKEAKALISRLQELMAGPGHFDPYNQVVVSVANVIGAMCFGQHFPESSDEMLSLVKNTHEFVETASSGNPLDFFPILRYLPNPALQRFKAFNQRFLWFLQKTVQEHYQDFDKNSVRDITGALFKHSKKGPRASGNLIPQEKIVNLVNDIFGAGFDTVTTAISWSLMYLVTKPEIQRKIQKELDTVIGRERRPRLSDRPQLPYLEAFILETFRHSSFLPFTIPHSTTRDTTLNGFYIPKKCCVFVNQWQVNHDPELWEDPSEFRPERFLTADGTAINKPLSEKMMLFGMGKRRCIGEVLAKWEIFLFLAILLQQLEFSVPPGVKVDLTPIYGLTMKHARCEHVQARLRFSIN
# measurement-description: Cytochrome P450 inhibition assay (Vivid CYP450 kit)
# Assay type: in vitro ADME
# cond: human, recombinant CYP1A2 (Vivid CYP450 screening kit); 10 µM, single-dose duplicate; read-out: CYP inhibition % CYP1A2
assay-metric: inhibition at 10 µM (%)
Enter your answer as a number in %; do not include the unit.

Query: # return inhibition at 10 µM for CCN1CCN(Cc2ccc(NC(=O)c3cccc(C#Cc4cccc5[nH]nc(N)c45)c3)cc2C(F)(F)F)CC1 , test system: CYP1A2 (Homo sapiens)
Response: 9.88
